# system.under.test: T1, Cyno HER3 (CD33-[Cyno HER3, residues 20-643]-TAG) (cynomolgus, UniProt G7PIG5 20-643)
# T1 construct: range 20-643; CD33 leader left out as signal; also called cy HER3-Tag; not shown: C-terminal TAG (e.g. FLAG TAG)
# method: solution equilibrium titration (SET), IgG
readout: pKd
Formally, pKd is defined as -log10 of the concentration c, with c in mol/L.

The cases that follow already have their pKd on record.
>>> quantitative_readout("MOR09824 (antibody, human IgG1, kappa, V domains shown, tested as IgG) VH: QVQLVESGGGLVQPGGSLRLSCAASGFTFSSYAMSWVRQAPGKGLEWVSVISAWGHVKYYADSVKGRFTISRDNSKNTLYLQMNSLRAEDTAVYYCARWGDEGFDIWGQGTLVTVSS VL: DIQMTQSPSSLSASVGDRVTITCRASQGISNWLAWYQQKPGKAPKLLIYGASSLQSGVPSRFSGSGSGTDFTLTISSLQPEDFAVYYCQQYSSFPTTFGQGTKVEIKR")
11.52
>>> quantitative_readout("MOR09825 (antibody, human IgG1, kappa, V domains shown, tested as IgG) VH: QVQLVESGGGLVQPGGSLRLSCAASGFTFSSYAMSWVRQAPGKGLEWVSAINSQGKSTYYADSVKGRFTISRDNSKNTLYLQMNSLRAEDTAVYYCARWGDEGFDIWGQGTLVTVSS VL: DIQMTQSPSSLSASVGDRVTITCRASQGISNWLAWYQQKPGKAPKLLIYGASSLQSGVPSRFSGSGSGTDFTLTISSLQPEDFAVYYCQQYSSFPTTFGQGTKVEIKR")
10.25
>>> quantitative_readout("MOR09823 (antibody, human IgG1, kappa, V domains shown, tested as IgG) VH: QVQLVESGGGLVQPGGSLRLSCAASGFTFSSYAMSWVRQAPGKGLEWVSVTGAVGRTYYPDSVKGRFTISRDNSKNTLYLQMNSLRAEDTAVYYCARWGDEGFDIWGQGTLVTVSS VL: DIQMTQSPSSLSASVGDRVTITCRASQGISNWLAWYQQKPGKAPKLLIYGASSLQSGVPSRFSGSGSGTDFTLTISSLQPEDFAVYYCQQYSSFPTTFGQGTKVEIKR")
11.40
>>> quantitative_readout("MOR10701 (antibody, human IgG1, kappa, V domains shown, tested as IgG) VH: EVQLLESGGGLVQPGGSLRLSCAASGFTFSSYAMSWVRQAPGKGLEWVSVTGAVGRSTYYPDSVKGRFTISRDNSKNTLYLQMNSLRAEDTAVYYCARWGDEGFDIWGQGTLVTVSS VL: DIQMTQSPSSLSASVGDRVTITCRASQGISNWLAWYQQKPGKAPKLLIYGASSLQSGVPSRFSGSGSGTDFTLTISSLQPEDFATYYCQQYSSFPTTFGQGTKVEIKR")
11.40
>>> quantitative_readout("MOR09974 (antibody, human IgG1, kappa, V domains shown, tested as IgG) VH: QVQLVESGGGLVQPGGSLRLSCAASGFTFSSYAMSWVRQAPGKGLEWVSVINPSGNFTNYADSVKGRFTISRDNSKNTLYLQMNSLRAEDTAVYYCARWGDEGFDIWGQGTLVTVSS VL: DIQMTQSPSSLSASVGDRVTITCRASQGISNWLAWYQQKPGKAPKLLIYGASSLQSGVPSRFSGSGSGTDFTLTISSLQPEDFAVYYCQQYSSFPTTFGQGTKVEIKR")
9.70

*Q* Any idea what pKd was measured for MOR10702 (antibody, human IgG1, kappa, V domains shown, tested as IgG) VH: EVQLLESGGGLVQPGGSLRLSCAASGFTFSSYAMSWVRQAPGKGLEWVSVISAWGHVKYYADSVKGRFTISRDNSKNTLYLQMNSLRAEDTAVYYCARWGDEGFDIWGQGTLVTVSS VL: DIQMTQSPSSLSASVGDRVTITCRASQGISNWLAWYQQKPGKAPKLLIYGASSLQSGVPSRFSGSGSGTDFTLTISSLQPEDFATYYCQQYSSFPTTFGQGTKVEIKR ?
*A* 11.52

*Q* Another: MOR10703 (antibody, human IgG1, kappa, V domains shown, tested as IgG) VH: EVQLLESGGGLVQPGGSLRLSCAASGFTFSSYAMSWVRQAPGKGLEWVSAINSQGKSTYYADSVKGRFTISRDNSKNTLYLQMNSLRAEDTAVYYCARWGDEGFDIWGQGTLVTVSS VL: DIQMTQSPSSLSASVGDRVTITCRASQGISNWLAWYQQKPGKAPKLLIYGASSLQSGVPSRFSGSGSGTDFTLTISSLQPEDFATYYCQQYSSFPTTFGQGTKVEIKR
*A* 10.64

These measurements were taken from patent US20130330324A1.
